Provide the reported pIC50 of each item.
# TARGET_ENTITY: FIH (Homo sapiens, UniProt Q9NWT6)
# Construct: made in house
# Sequence (Q9NWT6 whole entry): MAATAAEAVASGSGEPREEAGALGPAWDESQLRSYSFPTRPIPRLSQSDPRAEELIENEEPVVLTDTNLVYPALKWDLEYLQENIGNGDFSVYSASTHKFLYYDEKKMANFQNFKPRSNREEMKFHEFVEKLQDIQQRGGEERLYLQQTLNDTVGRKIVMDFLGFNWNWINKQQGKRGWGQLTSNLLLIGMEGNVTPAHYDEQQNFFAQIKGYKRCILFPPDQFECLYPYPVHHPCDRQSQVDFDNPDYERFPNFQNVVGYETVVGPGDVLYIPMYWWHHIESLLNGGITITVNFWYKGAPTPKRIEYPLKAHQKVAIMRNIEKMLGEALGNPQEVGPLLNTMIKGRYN
# TEST_SUMMARY: SPE-MS FIH inhibition assay
# Type: biochemical
Give bare numbers, as −log10 of the molar value.

O=C(O)Cc1cs/c(=N\C(=O)C2CCCN(S(=O)(=O)c3ccccc3)C2)n1O (centres unmarked) = 6.06
O=C(O)Cc1csc(=NC(=O)C2CCN(S(=O)(=O)c3ccc(C(F)(F)F)cc3)C2)n1O (centres unmarked) = 6.33
O=C(O)CCc1cs/c(=N\C(=O)CS(=O)(=O)c2ccccc2)n1O = 5.66
O=C(O)Cc1cs/c(=N\C(=O)COc2ccccc2)n1O = 6.12
O=C(O)Cc1cs/c(=N\C(=O)C2CN(S(=O)(=O)c3ccccc3)C2)n1O = 6.35

Return reported pIC50 values for all items listed beneath this line.
1. O=C(O)Cc1cs/c(=N\C(=O)CNS(=O)(=O)c2ccccc2)n1O
2. O=C(O)Cc1cs/c(=N\C(=O)CS(=O)(=O)Cc2ccc3ccccc3c2)n1O [BNS, reference compound]

*A*
1: 5.43; 2: 6.52

*Q* Form field: reported pIC50 of O=C(O)Cc1cs/c(=N\C(=O)CCS(=O)(=O)c2ccccc2)n1O
*A* 6.52
